// provenance: patent US9334263B2

Molecular target: D816V Kit (Homo sapiens, UniProt P10721, D816V)
Sequence (P10721 26-976 D816V): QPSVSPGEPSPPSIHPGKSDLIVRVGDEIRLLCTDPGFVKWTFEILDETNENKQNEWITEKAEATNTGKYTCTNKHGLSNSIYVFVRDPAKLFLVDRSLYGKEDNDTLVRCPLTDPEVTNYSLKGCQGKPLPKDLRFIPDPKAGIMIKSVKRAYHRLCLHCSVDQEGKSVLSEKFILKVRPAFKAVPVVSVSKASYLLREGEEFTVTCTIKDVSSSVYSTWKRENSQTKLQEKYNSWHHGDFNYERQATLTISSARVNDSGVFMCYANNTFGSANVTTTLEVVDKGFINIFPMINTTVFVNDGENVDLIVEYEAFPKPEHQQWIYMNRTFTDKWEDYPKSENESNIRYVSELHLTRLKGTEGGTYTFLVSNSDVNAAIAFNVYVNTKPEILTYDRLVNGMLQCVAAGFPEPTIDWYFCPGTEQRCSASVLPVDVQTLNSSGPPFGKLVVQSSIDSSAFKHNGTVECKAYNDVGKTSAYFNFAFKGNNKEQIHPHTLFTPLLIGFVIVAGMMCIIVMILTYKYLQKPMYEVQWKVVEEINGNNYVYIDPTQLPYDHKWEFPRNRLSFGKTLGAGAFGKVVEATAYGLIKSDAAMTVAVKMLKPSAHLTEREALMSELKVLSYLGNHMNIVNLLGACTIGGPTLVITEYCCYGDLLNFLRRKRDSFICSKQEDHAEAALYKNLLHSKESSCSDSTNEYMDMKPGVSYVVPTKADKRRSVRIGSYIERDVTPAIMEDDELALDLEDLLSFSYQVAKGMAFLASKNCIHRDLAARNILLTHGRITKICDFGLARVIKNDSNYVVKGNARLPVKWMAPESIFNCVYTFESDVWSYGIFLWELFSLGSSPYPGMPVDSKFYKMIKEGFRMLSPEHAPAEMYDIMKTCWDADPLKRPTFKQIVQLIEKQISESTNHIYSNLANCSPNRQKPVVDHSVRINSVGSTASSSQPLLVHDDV
Assay: Kit D816V assay at Km (Caliper electrophoretic mobility shift)
Details: 15 uM ATP, 25 C, 90 minutes
Measured IC50, listed per entry for reference.

In the examples that follow, each entry is paired with its recorded IC50.
1) OCC(O)c1ccc(Nc2ncnc(N3CCN(c4ncc(Cc5ccccc5)cn4)CC3)n2)cc1 (stereo not drawn) [Compound 55]
< 1 nM
2) OCc1ccccc1Cc1cnc(N2CCN(c3ncnc(Nc4ccc5c(c4)CNCC5)n3)CC2)nc1 [Compound 109]
< 1 nM
3) Cc1cc(Nc2ncnc(N3CCN(c4ncc(Cc5ccccc5)cn4)CC3)n2)no1 [Compound 11]
10 to 100 nM
4) OC[C@@H]1CN(c2ncnc(Nc3cnn(CC4CNCCO4)c3)n2)CCN1c1ncc(Cc2ccccc2)cn1 (stereo partly drawn) [Compound 248]
< 1 nM
5) CP(C)(=O)c1ccc(Nc2ncnc(N3CCN(c4ncc(Nc5ccc(F)cc5)cn4)CC3)n2)cc1 [Compound 144]
1.01 to 10 nM

Shifting focus to the compound that follows.
Query string: Which IC50 value is on record for CN1CCC[C@@H]1COc1ccc(Nc2ncnc(N3CCN(c4ncc(Cc5ccccc5)c(N)n4)CC3)n2)cc1 [Compound 265] ?
Result string: < 1 nM

---

Molecular target: D816V Kit (Homo sapiens, UniProt P10721, D816V)
Experiment: Kit D816V assay at Km (Caliper electrophoretic mobility shift)
Settings: 15 uM ATP, 25 C, 90 minutes
Measured IC50, listed per entry for reference.

In the examples that follow, each entry is paired with its recorded IC50.
1) COc1cc(Nc2ncnc(N3CCN(c4ncc(Cc5ccccc5)cn4)CC3)n2)ccn1 [Compound 17]
1.01 to 10 nM
2) O=C(c1ccccc1)c1cnc(N2CCN(c3ncnc(Nc4cnn(CC5CNCCO5)c4)n3)CC2)nc1 (stereo not drawn) [Compound 178]
1.01 to 10 nM
3) Cc1nc(N2CCN(c3ncnc(Nc4ccc5c(c4)CNCC5)n3)CC2)ncc1Cc1ccccc1 [Compound 70]
1.01 to 10 nM
4) O=C1CCc2ccc(Nc3ncnc(N4CCN(c5ncc(Cc6ccccc6)cn5)C(CCO)C4)n3)cc2N1 (stereo not drawn) [Compound 213]
1.01 to 10 nM
5) c1ccc(Cc2cnc(N3CCN(c4ncnc(Nc5ccc(O[C@H]6CCNC6)cc5)n4)CC3)nc2)cc1 [Compound 108]
< 1 nM
6) CN(C)CCCn1cc(Nc2ncnc(N3CCN(c4ncc(Cc5ccccc5)cn4)CC3)n2)cn1 [Compound 88]
< 1 nM

Shifting focus to the molecule that follows.
Query string: Lab note: need IC50 for Cc1[nH]ncc1Nc1ncnc(N2CCN(c3ncc(Sc4ccccc4F)cn3)CC2)n1 [Compound 20] on D816V Kit (Homo sapiens, UniProt P10721, D816V), anyone have it?
Result string: < 1 nM

---

Target: Kit D816V (HMC1.2 cells, Kit V560G and D816V) (Homo sapiens, UniProt P10721, D816V/V560G)
Construct: endogenous in cells
Sequence (P10721 26-976 V560G/D816V): as the sequence (P10721 26-976 D816V) above, with V535G counted along it
Assay: HMC1.2 autophosphorylation assay (AlphaLISA, phospho-Y719 c-Kit)
Settings: Kit autophosphorylation at tyrosine 719, 90 minutes, read-out: Cellular Activity
pIC50: −log10 of the molar value.
Readout Label: pIC50

1. c1ccc(Cc2cnc(N3CCN(c4ncnc(Nc5ccc(O[C@H]6CCNC6)cc5)n4)CC3)nc2)cc1
7.00 to 8.00
2. c1ccc(Cc2cnc(N3CCN(c4ncnc(Nc5cnn([C@@H]6CCNC6)c5)n4)CC3)nc2)cc1 (single isomer, unassigned)
7.00 to 8.00
3. OC1(c2ccc(Nc3ncnc(N4CCN(c5ncc(Cc6ccccc6)cn5)CC4)n3)cc2)CCCNC1 (stereo not shown)
> 8.00
4. Fc1cccc(Cc2cnc(N3CCN(c4ncnc(Nc5ccc6c(c5)CNCC6)n4)CC3)nc2)c1F
7.00 to 8.00
5. CN1CCN(Cc2cccc(Nc3ncnc(N4CCN(c5ncc(Cc6ccccc6)cn5)CC4)n3)c2)CC1
7.00 to 8.00

Query string: Which pIC50 value is on record for c1ccc(Oc2cnc(N3CCN(c4ncnc(Nc5ccc6c(c5)CNCC6)n4)CC3)nc2)cc1 ?
Result string: 7.00 to 8.00

Query string: Moving on to c1cnc(N2CCN(c3ncnc(Nc4ccc5c(c4)CNCC5)n3)CC2)nc1
Result string: 5.00 to 6.00

---

Target: D816V Kit (Homo sapiens, UniProt P10721, D816V)
Assay: Kit D816V assay at Km (Caliper electrophoretic mobility shift)
Details: 15 uM ATP, 25 C, 90 minutes
pIC50: −log10 of the molar value.
Measured pIC50, listed per entry for reference.

In the examples that follow, each entry is paired with its recorded pIC50.
1. OC[C@H](O)COc1ccc(Nc2ncnc(N3CCN(c4ncc(Cc5ccccc5)cn4)CC3)n2)cc1 [Compound 131]
8.00 to 9.00
2. CC(C)(O)Cn1cc(Nc2ncnc(N3CCN(c4ncc(Sc5ccccc5F)cn4)CC3)n2)cn1 [Compound 150]
8.00 to 9.00
3. CNCCCn1cc(Nc2ncnc(N3CCN(c4ncc(Cc5ccccc5)cn4)CC3)n2)cn1 [Compound 61]
> 9.00

Shifting focus to the compound that follows.
Query string: Which pIC50 value is on record for O[C@@H]1CCCN(c2ccc(Nc3ncnc(N4CCN(c5ncc(Cc6ccc(F)cc6)cn5)CC4)n3)cc2)C1 [Compound 239] ?
Result string: 8.00 to 9.00

---

Target: D816V Kit (Homo sapiens, UniProt P10721, D816V)
Construct: purchased Carna Bioscience 08-156
Experiment: Kit D816V assay at Km (Caliper electrophoretic mobility shift)
Assay type: biochemical
Conditions: 15 uM ATP, 25 C, 90 minutes
pIC50: −log10 of the molar value.
Readout Label: pIC50

In the examples that follow, each entry is paired with its recorded pIC50.
1. Cn1cc(Nc2ncnc(N3CCN(c4ncc(Cc5ccccc5)cn4)CC3)n2)cn1 [Compound 10]
> 9.00
2. Cc1c(Nc2ncnc(N3CCN(c4ncc(Br)cn4)CC3)n2)cnn1C[C@@H]1CNCCO1 [Compound 142]
7.00 to 8.00

Shifting focus to the molecule that follows.
Query string: Lab note: need pIC50 for CC(c1ccccc1)c1cnc(N2CCN(c3ncnc(Nc4ccc5c(c4)CNCC5)n3)CC2)nc1 (centres unmarked) [Compound 71] on D816V Kit (Homo sapiens, UniProt P10721, D816V), anyone have it?
Result string: > 9.00

---

Target: PDGFRA D842V (Homo sapiens, UniProt P16234, D842V)
Sequence (P16234 24-1089 D842V): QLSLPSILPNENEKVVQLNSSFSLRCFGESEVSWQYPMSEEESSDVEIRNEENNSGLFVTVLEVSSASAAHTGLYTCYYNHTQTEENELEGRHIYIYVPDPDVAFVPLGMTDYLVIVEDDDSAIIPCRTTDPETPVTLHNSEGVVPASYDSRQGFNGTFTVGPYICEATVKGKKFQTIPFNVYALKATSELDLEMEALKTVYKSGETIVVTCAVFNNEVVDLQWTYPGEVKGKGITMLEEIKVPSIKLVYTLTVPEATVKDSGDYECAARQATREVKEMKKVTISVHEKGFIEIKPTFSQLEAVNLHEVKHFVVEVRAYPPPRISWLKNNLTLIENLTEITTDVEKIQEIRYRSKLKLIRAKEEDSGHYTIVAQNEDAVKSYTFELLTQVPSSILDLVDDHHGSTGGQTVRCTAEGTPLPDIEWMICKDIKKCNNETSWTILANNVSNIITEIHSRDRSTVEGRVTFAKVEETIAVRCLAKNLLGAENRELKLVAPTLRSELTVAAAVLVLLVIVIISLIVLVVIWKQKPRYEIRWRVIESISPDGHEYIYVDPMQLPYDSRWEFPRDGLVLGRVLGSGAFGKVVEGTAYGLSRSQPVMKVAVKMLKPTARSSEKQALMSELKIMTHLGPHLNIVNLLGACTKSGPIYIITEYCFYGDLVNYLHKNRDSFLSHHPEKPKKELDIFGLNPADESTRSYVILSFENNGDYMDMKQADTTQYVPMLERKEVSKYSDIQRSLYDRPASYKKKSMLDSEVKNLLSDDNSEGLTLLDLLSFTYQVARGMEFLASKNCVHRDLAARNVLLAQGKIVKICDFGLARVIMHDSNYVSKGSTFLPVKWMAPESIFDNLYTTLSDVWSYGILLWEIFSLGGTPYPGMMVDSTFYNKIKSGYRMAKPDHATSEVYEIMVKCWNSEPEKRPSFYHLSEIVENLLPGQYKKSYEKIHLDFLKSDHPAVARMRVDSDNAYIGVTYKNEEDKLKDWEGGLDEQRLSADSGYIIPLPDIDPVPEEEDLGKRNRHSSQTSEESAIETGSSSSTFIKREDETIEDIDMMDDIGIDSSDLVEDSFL
Experiment: PDGFRA D842V assay at Km (Caliper electrophoretic mobility shift)
Conditions: 15 uM ATP, 25 C, 90 minutes; read-out: PDFGRA D842V
pIC50: −log10 of the molar value.
Readout Label: pIC50

1) Nc1nc(N2CCN(c3ncnc(Nc4ccc5c(c4)CNCC5)n3)CC2)ncc1Cc1ccccc1
> 9.00

Query string: Which pIC50 value is on record for CNC(C)c1cccc(Nc2ncnc(N3CCN(c4ncc(Cc5ccccc5)cn4)CC3)n2)c1 (stereo not drawn) ?
Result string: > 9.00

Query string: Moving on to c1ccc(Cc2cnc(N3CCN(c4ncnc(Nc5cnc6c(c5)CNCC6)n4)CC3)nc2)cc1
Result string: 8.00 to 9.00

Query string: Moving on to CNCCCn1cc(Nc2ncnc(N3CCN(c4ncc(Cc5ccccc5)cn4)CC3)n2)cn1
Result string: > 9.00

Query string: Moving on to Cc1c(Nc2ncnc(N3CCN(c4ncc(Cc5ccc(F)cc5)cn4)CC3)n2)cnn1C[C@@H]1CNCCO1
Result string: 8.00 to 9.00

Query string: Moving on to CN1CCc2ccc(Nc3ncnc(N4CCN(c5ncc(Cc6ccccc6)cn5)CC4)n3)cc2C1
Result string: > 9.00

Query string: Moving on to Fc1ccc(Sc2cnc(N3CCN(c4ncnc(Nc5cnn(C[C@@H]6CNCCO6)c5)n4)CC3)nc2)cc1
Result string: 8.00 to 9.00

Query string: Moving on to c1ccc(Cc2cnc(N3CCN(c4ncnc(Nc5cn[nH]c5)n4)CC3)nc2)cc1
Result string: > 9.00

---

Biological target: D816V Kit (Homo sapiens, UniProt P10721, D816V)
Construct: purchased Carna Bioscience 08-156
Assay: Kit D816V assay at Km (Caliper electrophoretic mobility shift)
Format: biochemical
Settings: 15 uM ATP, 25 C, 90 minutes
pIC50: −log10 of the molar value.
Readout Label: pIC50

In the examples that follow, each entry is paired with its recorded pIC50.
1) Cc1c(Nc2ncnc(N3CCN(c4ncc(Cc5ccc(F)cc5)cn4)CC3)n2)cnn1C[C@@H]1CNCCO1
8.00 to 9.00
2) c1nc(Nc2cnn(CC3CNCCO3)c2)nc(N2CCN(c3ncc(C4CC4)cn3)CC2)n1 (stereo not drawn)
7.00 to 8.00
3) CN1CCNC[C@H]1Cn1cc(Nc2ncnc(N3CCN(c4ncc(Cc5ccccc5)cn4)CC3)n2)cn1
8.00 to 9.00
4) Cc1c(Nc2ncnc(N3CCN(c4ncc(Sc5ccccc5F)cn4)CC3)n2)cnn1C1COC1
8.00 to 9.00
5) CC(C)(O)Cn1cc(Nc2ncnc(N3CCN(c4ncc([C@](C)(O)c5ccc(F)cc5)cn4)CC3)n2)cn1
> 9.00

Query string: Lab note: need pIC50 for CC(C)(c1ccc(F)cc1)c1cnc(N2CCN(c3ncnc(Nc4cnn(C[C@@H]5CNCCO5)c4)n3)CC2)nc1 on D816V Kit (Homo sapiens, UniProt P10721, D816V), anyone have it?
Result string: > 9.00

Query string: Moving on to COCCN1CCc2ccc(Nc3ncnc(N4CCN(c5ncc(Cc6ccccc6)cn5)CC4)n3)cc2C1
Result string: > 9.00

Query string: Moving on to CNc1ncnc(N2CCN(c3ncc(Cc4ccccc4)c(N)n3)CC2)n1
Result string: < 7.00

Query string: Moving on to OC[C@@H](O)COc1ccc(Nc2ncnc(N3CCN(c4ncc(Cc5ccccc5)cn4)CC3)n2)cc1
Result string: 8.00 to 9.00
